This section presents variants with their documented protein stability index values.
B1: GLT8D2 (parent)
chain: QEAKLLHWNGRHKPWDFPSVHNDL

variants of: B1; assay: protein stability index of a GFP-peptide fusion (GPS, HEK-293T) (PSI 1-6); higher = more stable; details: c terminus: a fixed tail appended;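 further: lentivirally expressed fusions sorted by FACS into six bins by GFP to DsRed ratio, PSI derived from sequencing read proportions per bin multiplied by bin number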
Output: the number by itself.

item-sequence	val
QEAKLLHWNGRHSPWDFPSVHNDL [K13S]	2.27

Which protein stability index is listed for QEAKLLHWNGRHQPWDFPSVHNDL [K13Q] ?
2.7

Which protein stability index is listed for QEAKLLHRNGRHKPWDFPSVHNDL [W8R] ?
3.01

Which protein stability index is listed for QEYKLLHWNGRHKPWDFPSVHNDL [A3Y] ?
2.19

Which protein stability index is listed for QEAKLLHWNGRHKPWDRPSVHNDL [F17R] ?
3.04

Source: the supplement of paper PMC10567573
